- Target Of Assay: Gamma-aminobutyric acid receptor subunit alpha-1 (Rattus norvegicus); note: assay procedure not described here
- Sequence (P62813 whole entry): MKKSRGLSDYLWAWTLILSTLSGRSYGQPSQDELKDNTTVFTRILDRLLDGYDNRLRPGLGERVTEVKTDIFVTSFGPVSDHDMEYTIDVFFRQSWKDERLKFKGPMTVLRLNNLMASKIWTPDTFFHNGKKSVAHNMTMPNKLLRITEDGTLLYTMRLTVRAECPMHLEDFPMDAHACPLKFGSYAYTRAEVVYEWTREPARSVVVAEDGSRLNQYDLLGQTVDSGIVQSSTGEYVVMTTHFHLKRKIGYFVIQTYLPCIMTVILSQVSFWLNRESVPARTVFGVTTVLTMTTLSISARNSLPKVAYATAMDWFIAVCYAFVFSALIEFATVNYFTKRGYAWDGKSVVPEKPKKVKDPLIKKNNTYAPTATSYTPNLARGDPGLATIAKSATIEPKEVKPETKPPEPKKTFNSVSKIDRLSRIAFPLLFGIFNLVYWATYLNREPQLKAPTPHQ
- Assay type: functional
Quantity: AC50

Compound	Target Of Assay	Quantity	Observed Measurement
CC(=O)SC[C@@H](C)C(=O)N1CCC[C@H]1C(=O)N[C@@H](Cc1ccccc1)C(=O)O	Gamma-aminobutyric acid receptor subunit alpha-1 (Rattus norvegicus)	AC50	> 30 µM
COc1ccccc1Oc1c(NS(=O)(=O)c2ccc(C(C)(C)C)cc2)nc(-c2ncccn2)nc1OCCO	Gamma-aminobutyric acid receptor subunit alpha-1 (Rattus norvegicus)	AC50	> 10 µM
CCOC(=O)C1=C[C@]2(CC)CCCN3CCc4c(n1c1ccccc41)[C@@H]32	Gamma-aminobutyric acid receptor subunit alpha-1 (Rattus norvegicus)	AC50	> 30 µM
CN1CCN(C2=Nc3ccccc3Oc3ccc(Cl)cc32)CC1	Gamma-aminobutyric acid receptor subunit alpha-1 (Rattus norvegicus)	AC50	> 10 µM
C[C@H]1c2cccc(O)c2C(=O)C2=C(O)[C@]3(O)C(=O)C(C(N)=O)=C(O)[C@@H](N(C)C)[C@@H]3[C@@H](O)[C@@H]21	Gamma-aminobutyric acid receptor subunit alpha-1 (Rattus norvegicus)	AC50	> 10 µM
Nc1ncn([C@H]2C[C@H](O)[C@@H](CO)O2)c(=O)n1	Gamma-aminobutyric acid receptor subunit alpha-1 (Rattus norvegicus)	AC50	> 30 µM
CCC(COC(=O)c1cc(OC)c(OC)c(OC)c1)(c1ccccc1)N(C)C (centres undefined)	Gamma-aminobutyric acid receptor subunit alpha-1 (Rattus norvegicus)	AC50	> 30 µM
C#C[C@]1(OC(C)=O)CC[C@H]2[C@@H]3CCC4=C/C(=N/O)CC[C@@H]4[C@H]3CC[C@@]21CC [NORGESTIMATE]	Gamma-aminobutyric acid receptor subunit alpha-1 (Rattus norvegicus)	AC50	> 30 µM
CCC1(c2ccccc2)CCC(=O)NC1=O (centres undefined) [GLUTETHIMIDE]	Gamma-aminobutyric acid receptor subunit alpha-1 (Rattus norvegicus)	AC50	> 10 µM
CN(C)CCC[C@@]1(c2ccc(F)cc2)OCc2cc(C#N)ccc21	Gamma-aminobutyric acid receptor subunit alpha-1 (Rattus norvegicus)	AC50	> 30 µM
CC12CC3CC(C)(C1)CC(N)(C3)C2 [MEMANTINE]	Gamma-aminobutyric acid receptor subunit alpha-1 (Rattus norvegicus)	AC50	> 10 µM
CO[C@H]1/C=C/O[C@@]2(C)Oc3c(C)c(O)c4c(O)c(c(/C=N/N5CCN(C)CC5)c(O)c4c3C2=O)NC(=O)/C(C)=C\C=C\[C@H](C)[C@H](O)[C@@H](C)[C@@H](O)[C@@H](C)[C@H](OC(C)=O)[C@@H]1C	Gamma-aminobutyric acid receptor subunit alpha-1 (Rattus norvegicus)	AC50	> 30 µM
CCCC(CCC)C(N)=O [VALPROMIDE]	Gamma-aminobutyric acid receptor subunit alpha-1 (Rattus norvegicus)	AC50	> 10 µM
COc1ccc(-c2noc(CC(=O)O)c2-c2ccc(OC)cc2)cc1	Gamma-aminobutyric acid receptor subunit alpha-1 (Rattus norvegicus)	AC50	> 30 µM
CC(C)(C)C(=O)OCC(=O)[C@H]1CC[C@H]2[C@@H]3CCC4=CC(=O)CC[C@]4(C)[C@H]3CC[C@]12C [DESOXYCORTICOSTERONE PIVALATE]	Gamma-aminobutyric acid receptor subunit alpha-1 (Rattus norvegicus)	AC50	> 10 µM
CCN(CC)CCNC(=O)c1cc(S(C)(=O)=O)ccc1OC [TIAPRIDE]	Gamma-aminobutyric acid receptor subunit alpha-1 (Rattus norvegicus)	AC50	> 30 µM
COc1cc2nccc(Oc3ccc(NC(=O)C4(C(=O)Nc5ccc(F)cc5)CC4)cc3)c2cc1OC [CABOZANTINIB]	Gamma-aminobutyric acid receptor subunit alpha-1 (Rattus norvegicus)	AC50	> 30 µM
C/N=C(\NC)NCc1ccccc1	Gamma-aminobutyric acid receptor subunit alpha-1 (Rattus norvegicus)	AC50	> 30 µM
CCOC(=O)C1=C(C)NC(C)=C(C(=O)OC)C1c1cccc([N+](=O)[O-])c1 (centres undefined)	Gamma-aminobutyric acid receptor subunit alpha-1 (Rattus norvegicus)	AC50	> 10 µM
